Measured values drawn from ChEMBL document CHEMBL3120075 for this set.

Experiment: Cmax in fasted healthy human at 10 mg/kg, po
Format: ADME, organism-based
Parameters: dose 10 mg/kg, route oral
Conditions: in vivo
measured_property: Cmax (nM)
The answer is to be given in nM; state only the numeric part.

The reported Cmax of the compound COC(=O)N[C@H](C(=O)N1CC2(CC2)C[C@H]1c1nc(-c2ccc3c(c2)C(F)(F)c2cc(-c4ccc5[nH]c([C@@H]6[C@H]7CC[C@H](C7)N6C(=O)[C@@H](NC(=O)OC)C(C)C)nc5c4)ccc2-3)c[nH]1)C(C)C was 21.3

###

Would you kindly list MRT for each of these compounds?
Test: Mean residence time in Sprague-Dawley rat at 1 mg/kg, iv
Format: ADME, organism-based
Set-up: dose 1 mg/kg, route intravenous
Settings: in vivo

Briefly, MRT measured for COC(=O)N[C@H](C(=O)N1CC2(CC2)C[C@H]1c1nc(-c2ccc3c(c2)C(F)(F)c2cc(-c4ccc5[nH]c([C@@H]6[C@H]7CC[C@H](C7)N6C(=O)[C@@H](NC(=O)OC)C(C)C)nc5c4)ccc2-3)c[nH]1)C(C)C : 6.19 h

Sample COC(=O)N[C@H](C(=O)N1CCC[C@H]1c1ncc(-c2ccc(-c3ccc(-c4ccc5nc([C@@H]6[C@H]7CC[C@H](C7)N6C(=O)[C@@H](NC(=O)OC)C(C)C)[nH]c5c4)cc3)cc2)[nH]1)C(C)C ; MRT observed: 2.42 h
